# experimentNotes: Clearance in Sprague-Dawley rat at 1 mg/kg, iv
# Type: ADME, organism-based
# Set-up: dose 1 mg/kg, route intravenous
# studyConditions: in vivo
Listed here are molecules together with their documented clearance.
Please state the figure in mL/min/kg; there is no need to write the unit.

The examples below pair each entry with its known result.
1. COCCNCc1ccc2c(c1)OCC[C@H]2NC(=O)C[C@@H](NS(=O)(=O)c1cccc(C(F)(F)F)c1)c1ccc(F)cc1 : 39.4
2. O=C(C[C@@H](NS(=O)(=O)c1cccc(C(F)(F)F)c1)c1ccc(F)cc1)N[C@@H]1CCOc2cc(CN3CCCCC3)ccc21 : 24.8

Item: O=C(C[C@@H](NS(=O)(=O)c1cccc(C(F)(F)F)c1)c1ccc(F)cc1)N[C@@H]1CCOc2cc(CN3CCCC3)ccc21 | clearance: 51.3

Item: O=C(C[C@@H](NS(=O)(=O)c1ccc2ccccc2c1)c1ccccc1)N[C@@H]1CCOc2cc(CN3CCCCC3)ccc21 | clearance: 84.1

* * *

# targetDesc: B1 bradykinin receptor (Homo sapiens, UniProt P46663)
# Sequence (P46663 whole entry): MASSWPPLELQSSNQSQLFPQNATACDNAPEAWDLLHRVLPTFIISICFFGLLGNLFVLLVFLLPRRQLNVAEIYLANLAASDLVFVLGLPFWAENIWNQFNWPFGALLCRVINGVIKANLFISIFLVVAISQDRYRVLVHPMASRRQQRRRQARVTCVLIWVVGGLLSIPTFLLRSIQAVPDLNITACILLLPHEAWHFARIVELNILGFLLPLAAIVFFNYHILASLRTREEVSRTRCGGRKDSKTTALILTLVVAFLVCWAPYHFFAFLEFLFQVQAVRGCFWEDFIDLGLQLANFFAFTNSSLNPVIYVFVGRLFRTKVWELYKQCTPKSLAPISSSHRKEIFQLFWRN
# experimentNotes: Antagonist activity at human bradykinin B1 receptor expressed in CHOD cells assessed as effect on DAK-induced calcium flux
# Format: functional, cell-based
readoutType: IC50

1. CC(C)(C)NCc1ccc2c(c1)OCC[C@H]2NC(=O)C[C@@H](NS(=O)(=O)c1cccc(Cl)c1)c1ccccc1 : 113 nM (antagonist)
2. Cc1c(Cl)cccc1S(=O)(=O)N[C@H](CC(=O)N[C@@H]1CCOc2cc(CNC(C)(C)C)ccc21)c1ccccc1 : 207 nM (antagonist)
3. O=C(C[C@@H](NS(=O)(=O)c1ccc2ccccc2c1)c1ccccc1)N[C@@H]1CCOc2cc(CN3CCCC3)ccc21 : 14.8 nM (antagonist)
4. CC(C)CNCc1ccc2c(c1)OCC[C@H]2NC(=O)C[C@@H](NS(=O)(=O)c1cccc(C(F)(F)F)c1)c1ccc(F)cc1 : 14.8 nM (antagonist)
5. O=C(C[C@@H](NS(=O)(=O)c1ccc2ccccc2c1)c1ccccc1)N[C@@H]1CCOc2cc(CN3CCOCC3)ccc21 : 10.9 nM (antagonist)
6. CC(C)(C)NCc1ccc2c(c1)OCC[C@H]2NC(=O)C[C@@H](NS(=O)(=O)c1ccccc1Cl)c1ccccc1 : 2030 nM (antagonist)
7. CC(C)(C)NCc1ccc2c(c1)OCC[C@H]2NC(=O)C[C@@H](NS(=O)(=O)c1ccc2ccccc2c1)c1ccccc1 : 17 nM (antagonist)
8. CC(C)NCc1ccc2c(c1)OCC[C@H]2NC(=O)C[C@@H](NS(=O)(=O)c1cccc(C(F)(F)F)c1)c1ccc(F)cc1 : 20.1 nM (antagonist)
9. CC(C)(C)NCc1ccc2c(c1)OCC[C@H]2NC(=O)C[C@@H](NS(=O)(=O)c1ccc(Cl)cc1Cl)c1ccccc1 : 255 nM (antagonist)
10. CC(C)CNCc1ccc2c(c1)OCC[C@H]2NC(=O)C[C@@H](NS(=O)(=O)c1ccc2ccccc2c1)c1ccccc1 : 10.5 nM (antagonist)

Could you now look at the following compound, please?
Item: O=C(C[C@@H](NS(=O)(=O)c1ccc2ccccc2c1)c1ccccc1)N[C@@H]1CCOc2cc(CNC3CCCCC3)ccc21 | IC50: 69.9 nM (antagonist)

* * *

# experimentNotes: Metabolic stability in human liver microsomes
# Type: ADME, Microsome
# studyConditions: read-out: Stability
readoutType: microsomal CLint (µL/min/mg)
Please state the figure in µL/min/mg; there is no need to write the unit.

1) O=C(C[C@@H](NS(=O)(=O)c1ccc2ccccc2c1)c1ccccc1)N[C@@H]1CCOc2cc(CN3CCCCC3)ccc21 : 688
2) O=C(C[C@@H](NS(=O)(=O)c1cccc(C(F)(F)F)c1)c1ccc(F)cc1)N[C@@H]1CCOc2cc(CN3CCCC3)ccc21 : 355

Could you now look at the following compound, please?
Item: COCCNCc1ccc2c(c1)OCC[C@H]2NC(=O)C[C@@H](NS(=O)(=O)c1cccc(C(F)(F)F)c1)c1ccc(F)cc1 | microsomal CLint: 310

* * *

# targetDesc: B1 bradykinin receptor (Homo sapiens, UniProt P46663)
# Sequence (P46663 whole entry): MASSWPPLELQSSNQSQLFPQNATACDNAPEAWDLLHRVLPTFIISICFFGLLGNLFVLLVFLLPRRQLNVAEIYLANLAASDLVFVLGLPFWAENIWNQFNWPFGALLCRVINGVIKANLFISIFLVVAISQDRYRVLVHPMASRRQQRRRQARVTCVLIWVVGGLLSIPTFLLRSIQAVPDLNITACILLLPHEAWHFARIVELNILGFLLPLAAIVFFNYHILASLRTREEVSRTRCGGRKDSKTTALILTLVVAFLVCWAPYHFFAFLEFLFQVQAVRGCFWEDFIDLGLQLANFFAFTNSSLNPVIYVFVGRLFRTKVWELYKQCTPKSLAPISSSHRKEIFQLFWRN
# experimentNotes: Antagonist activity at human bradykinin B1 receptor expressed in CHOD cells assessed as effect on DAK-induced calcium flux
# Format: functional, cell-based
readoutType: IC50

The examples below pair each entry with its known result.
1) O=C(C[C@@H](NS(=O)(=O)c1cccc(C(F)(F)F)c1)c1ccc(F)cc1)N[C@@H]1CCOc2cc(CNC3CCC3)ccc21 : 46.2 nM (antagonist)
2) O=C(C[C@@H](NS(=O)(=O)c1ccc2ccccc2c1)c1ccccc1)N[C@@H]1CCOc2cc(CO)ccc21 : > 4000 nM
3) CC(C)(C)NCc1ccc2c(c1)OCC[C@H]2NC(=O)C[C@@H](NS(=O)(=O)c1ccc(C(C)(C)C)cc1)c1ccccc1 : 60.9 nM (antagonist)

Could you now look at the following compound, please?
Item: CC(C)(C)NCc1ccc2c(c1)OCC[C@H]2NC(=O)C[C@@H](NS(=O)(=O)c1cccc(C(F)(F)F)c1)c1ccc(F)cc1 | IC50: 9.9 nM (antagonist)

* * *

# targetDesc: B1 bradykinin receptor (Homo sapiens)
# Sequence (P46663 whole entry): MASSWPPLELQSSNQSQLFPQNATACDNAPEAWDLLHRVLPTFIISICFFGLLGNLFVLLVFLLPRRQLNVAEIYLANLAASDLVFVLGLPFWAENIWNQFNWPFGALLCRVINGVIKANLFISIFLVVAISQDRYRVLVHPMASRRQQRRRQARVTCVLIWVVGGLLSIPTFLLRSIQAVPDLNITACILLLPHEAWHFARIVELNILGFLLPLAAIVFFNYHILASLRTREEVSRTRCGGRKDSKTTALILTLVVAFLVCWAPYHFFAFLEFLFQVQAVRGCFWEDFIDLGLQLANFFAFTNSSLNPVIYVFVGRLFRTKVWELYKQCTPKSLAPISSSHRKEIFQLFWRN
# experimentNotes: Antagonist activity at human bradykinin B1 receptor expressed in CHOD cells assessed as effect on DAK-induced calcium flux
# Type: functional, cell-based
Listed here are compounds together with their documented IC50.

The examples below pair each entry with its known result.
1. CC(C)NCc1ccc2c(c1)OCC[C@H]2NC(=O)C[C@@H](NS(=O)(=O)c1ccc2ccccc2c1)c1ccccc1 : 0.0459 µM (antagonist)
2. COCCNCc1ccc2c(c1)OCC[C@H]2NC(=O)C[C@@H](NS(=O)(=O)c1ccc(Cl)c(Cl)c1)c1ccc(F)cc1 : 0.0094 µM (antagonist)
3. C[C@@H]1CCC[C@H](C)N1Cc1ccc2c(c1)OCC[C@H]2NC(=O)C[C@@H](NS(=O)(=O)c1ccc2ccccc2c1)c1ccccc1 : 0.0963 µM (antagonist)

Could you now look at the following compound, please?
Item: CNCc1ccc2c(c1)OCC[C@H]2NC(=O)C[C@@H](NS(=O)(=O)c1ccc2ccccc2c1)c1ccccc1 | IC50: 0.212 µM (antagonist)
